Origin of values: patent US20110300138A1

# System Name: T1, TSHR260-alkaline phosphatase (TSHR260-AP) (human, UniProt P05187 23-511)
# T1 construct: Fusion of human TSHR amino acids 22-260 (construct codes 1-260, 1-21 being the leader) with secreted alkaline phosphatase, expressed in insect cells; In the ELISA the antibody bridges full length detergent-solubilised TSHR coated on the wells and TSHR260-AP in the liquid phase
# Assay Text: TSHR260-AP bridge ELISA, full length TSHR on wells; 0.1 µg/mL, diluted in assay buffer
Assay Metric: Mean absorbance at 405 nm (absorbance at 405 nm)
Answers are plain numbers, in absorbance at 405 nm.

Illustrative cases are given below, each with its answer.
{"Binder": "K1-18 IgG (antibody, V domains shown, Human IgG1 kappa purified from hetero-hybridoma supernatant) VH: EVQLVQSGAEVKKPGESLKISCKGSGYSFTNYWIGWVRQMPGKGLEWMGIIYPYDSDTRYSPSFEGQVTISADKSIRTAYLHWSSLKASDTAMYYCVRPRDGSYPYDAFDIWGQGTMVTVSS VL: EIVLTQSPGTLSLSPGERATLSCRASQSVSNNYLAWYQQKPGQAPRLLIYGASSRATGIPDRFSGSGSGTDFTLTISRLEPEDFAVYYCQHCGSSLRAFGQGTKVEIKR", "Assay Metric": "Mean absorbance at 405 nm", "Value": 0.545}
{"Binder": "K1-18 Fab (Fab, V domains shown, residue limits as in claim 65) VH: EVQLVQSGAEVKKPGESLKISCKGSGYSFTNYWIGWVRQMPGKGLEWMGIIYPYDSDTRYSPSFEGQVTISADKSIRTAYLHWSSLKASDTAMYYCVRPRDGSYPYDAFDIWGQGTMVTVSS VL: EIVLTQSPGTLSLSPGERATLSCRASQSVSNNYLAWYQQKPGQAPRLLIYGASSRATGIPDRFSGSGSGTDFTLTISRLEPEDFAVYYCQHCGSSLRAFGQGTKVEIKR", "Assay Metric": "Mean absorbance at 405 nm", "Value": 0.002}
{"Binder": "K1-70 Fab (Fab, V domains shown, residue limits as in claims 56 and 57) VH: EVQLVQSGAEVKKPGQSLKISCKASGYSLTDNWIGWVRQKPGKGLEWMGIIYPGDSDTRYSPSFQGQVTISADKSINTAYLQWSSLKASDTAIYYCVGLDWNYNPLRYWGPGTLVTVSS VL: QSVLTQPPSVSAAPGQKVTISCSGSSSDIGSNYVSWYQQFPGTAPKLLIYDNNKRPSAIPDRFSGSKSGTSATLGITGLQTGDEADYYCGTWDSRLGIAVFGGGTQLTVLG", "Assay Metric": "Mean absorbance at 405 nm", "Value": 0.007}

For K1-70 IgG (antibody, V domains shown, Human IgG1 lambda purified from hetero-hybridoma supernatant) VH: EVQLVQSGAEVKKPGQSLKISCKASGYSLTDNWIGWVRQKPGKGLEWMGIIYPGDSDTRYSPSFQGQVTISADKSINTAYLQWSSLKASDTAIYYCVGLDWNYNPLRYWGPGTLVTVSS VL: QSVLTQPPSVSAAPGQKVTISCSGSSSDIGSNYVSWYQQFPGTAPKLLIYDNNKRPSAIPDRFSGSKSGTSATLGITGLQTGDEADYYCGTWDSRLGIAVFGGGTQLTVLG , write its Mean absorbance at 405 nm.
0.713
